Cited source: patent US20260226154A1

Each entry below carries its recorded pKd.
- target_of_assay: T1, PACAP38 (human, not fully specified)
- T1 construct: The background says natural PACAP is alpha-amidated
- T1 peptide: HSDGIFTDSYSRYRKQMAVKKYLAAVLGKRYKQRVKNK
- protocol_description: SPR (Biacore), 37 C, antibody captured via anti-human Fc, peptide analyte
pKd here is simply -log10 of the concentration when that concentration is written in mol/L.

Illustrative cases are given below, each with its answer.
INSERT INTO measurements (binder, numeric_readout) VALUES
  ('604C (antibody, V domains shown) VH: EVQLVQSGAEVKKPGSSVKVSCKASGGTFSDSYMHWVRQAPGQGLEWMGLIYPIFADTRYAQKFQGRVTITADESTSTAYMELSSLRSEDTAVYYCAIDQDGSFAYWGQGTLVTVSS VL: DIVMTQSPDSLAVSLGERATINCKSSQSLLDSDGKTYLNWLQQKPGQPPKRLIYWASTRESGVPDRFSGSGSGTDFTLTISSLQAEDVAVYYCWQGTWFDLTFGGGTKVEIK', 10.71),
  ('890C (antibody, human IgG2, kappa, V domains shown, Full chains as named ''890C heavy chain'' / ''890C light chain'' (IgG2DASS, kappa); also called anti-PACAP antibody 890C) VH: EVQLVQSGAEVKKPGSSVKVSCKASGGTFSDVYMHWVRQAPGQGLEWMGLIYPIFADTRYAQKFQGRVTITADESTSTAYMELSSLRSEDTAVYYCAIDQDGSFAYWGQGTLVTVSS VL: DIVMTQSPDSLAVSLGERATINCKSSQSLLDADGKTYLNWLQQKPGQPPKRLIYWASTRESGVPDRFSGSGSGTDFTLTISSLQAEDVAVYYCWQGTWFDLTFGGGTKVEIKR', 10.55);

// below: pKd requested for another binder
Prompt: Give reported pKd value for 524C (antibody, V domains shown, LC S(27E), G29, L50, V51, K53T, L54R, D55E, H93W, P95D) VH: EVQLVQSGAEVKKPGSSVKVSCKASGGTFSDSYMHWVRQAPGQGLEWMGLIYPIFADQRYAQKFQGRVTITADESTSTAYMELSSLRSEDTAVYYCAIDQDASFAYWGQGTLVTVSS VL: DIVMTQSPDSLAVSLGERATINCKSSQSLLDSDGKTYLNWLQQKPGQPPKRLIYLVSTRESGVPDRFSGSGSGTDFTLTISSLQAEDVAVYYCWQGTWFDLTFGGGTKVEIK
Response: 10.46
